// data source = patent US10745382B2

Please go through the items and note down their IC50.
biological target: PD-1/PD-L1 (Homo sapiens); construct: made in house; host or cells: HEK293T; assay: PD-1/PD-L1 Homogenous Time-Resolved Fluorescence (HTRF) binding assay; settings: PD-L1-His 10 nM, PD-1-Ig 20 nM; value given as range class; read-out: Range or IC50
Sequence (Q9NZQ7 with tags, fused parts or gaps): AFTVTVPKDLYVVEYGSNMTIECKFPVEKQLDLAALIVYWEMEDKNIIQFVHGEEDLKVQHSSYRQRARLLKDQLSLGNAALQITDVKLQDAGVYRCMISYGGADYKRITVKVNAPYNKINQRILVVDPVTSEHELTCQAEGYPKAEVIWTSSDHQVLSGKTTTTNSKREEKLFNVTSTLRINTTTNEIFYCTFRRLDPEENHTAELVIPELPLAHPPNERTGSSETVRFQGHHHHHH

Task: Dear colleague, I am looking for the recorded IC50 of the following compound: "CNC(=O)c1cccc(-c2cccc(COc3cc(OCc4cncc(C#N)c4)c(CN4C[C@H](O)C[C@H]4C(=O)O)cc3Cl)c2C)c1C"
Result: 10 to 100 nM

Task: Dear colleague, I am looking for the recorded IC50 of the following compound: "Cc1c(COc2cc(OCc3cncc(C#N)c3)c(CN3CCN(CCO)CC3)cc2Cl)cccc1-c1cccc(OCCCN2CCN(CCO)CC2)c1C"
Result: 0.21 to 10 nM

Task: Dear colleague, I am looking for the recorded IC50 of the following compound: "Cc1c(COc2cc(OCc3cncc(S(C)(=O)=O)c3)c(CN[C@](C)(CO)C(=O)O)cc2Cl)cccc1-c1cccc(OCCCN2CC[C@@H](O)C2)c1C"
Result: 0.21 to 10 nM

Task: Dear colleague, I am looking for the recorded IC50 of the following compound: "Cc1c(COc2cc(OCc3cncc(C#N)c3)c(CN3CCCC[C@H]3C(=O)O)cc2Cl)cccc1-c1cccc(OCCCN2CCC(CO)CC2)c1C"
Result: 0.21 to 10 nM

Task: Dear colleague, I am looking for the recorded IC50 of the following compound: "CNC(=O)c1cccc(-c2cccc(COc3cc(OCc4cc(F)cc(F)c4)c(CN4CCOC[C@H]4C(=O)O)cc3Cl)c2C)c1C"
Result: 2010 to 10000 nM

Task: Dear colleague, I am looking for the recorded IC50 of the following compound: Cc1c(COc2cc(OCc3cncc(S(C)(=O)=O)c3)c(CN3CCCC[C@H]3C(=O)O)cc2Cl)cccc1-c1cccc(OCCCN2CC(O)C(C(=O)O)C2)c1C (stereo partly drawn)
Result: 0.21 to 10 nM
